# melting point per record follows

CC12CCC(=O)C=C1CCC1C2=CCC2(C)C1CCC2(O)C(=O)CCl (stereo not given) :: 227 to 228 °C
COc1ccc(COC(=O)NC(CO)Cc2ccc(O)cc2)cc1OC (stereo not given) :: 152 to 155 °C
CCn1cnc2c(Nc3cccc([N+](=O)[O-])c3)nc(N[C@H]3CC[C@H](O)CC3)nc21 :: 237 to 238 °C
O=C(O)c1cccc(Cl)c1C(F)(F)F :: 110 °C
Cc1cccc(C)c1-c1cccc2c1CC(CN)O2 (stereo not given) :: > 250 °C

Using the record for O=C(O)C1NCCc2c1[nH]c1ccc(F)cc21 (stereo not given) , report its melting point.
237 to 238 °C

Entry under review: "COc1cc(-c2nc(NC(=O)c3cc4ccccc4n3CCCCCC(=O)O)sc2CCC2CCCCC2)c(OC)cc1Cl" . Reported melting point?
121 °C
